molecular target: GR (Homo sapiens, UniProt P04150); assay: GR binding (competitive, reversible); conditions: read-out: affinity for GR
Sequence (P04150 whole entry): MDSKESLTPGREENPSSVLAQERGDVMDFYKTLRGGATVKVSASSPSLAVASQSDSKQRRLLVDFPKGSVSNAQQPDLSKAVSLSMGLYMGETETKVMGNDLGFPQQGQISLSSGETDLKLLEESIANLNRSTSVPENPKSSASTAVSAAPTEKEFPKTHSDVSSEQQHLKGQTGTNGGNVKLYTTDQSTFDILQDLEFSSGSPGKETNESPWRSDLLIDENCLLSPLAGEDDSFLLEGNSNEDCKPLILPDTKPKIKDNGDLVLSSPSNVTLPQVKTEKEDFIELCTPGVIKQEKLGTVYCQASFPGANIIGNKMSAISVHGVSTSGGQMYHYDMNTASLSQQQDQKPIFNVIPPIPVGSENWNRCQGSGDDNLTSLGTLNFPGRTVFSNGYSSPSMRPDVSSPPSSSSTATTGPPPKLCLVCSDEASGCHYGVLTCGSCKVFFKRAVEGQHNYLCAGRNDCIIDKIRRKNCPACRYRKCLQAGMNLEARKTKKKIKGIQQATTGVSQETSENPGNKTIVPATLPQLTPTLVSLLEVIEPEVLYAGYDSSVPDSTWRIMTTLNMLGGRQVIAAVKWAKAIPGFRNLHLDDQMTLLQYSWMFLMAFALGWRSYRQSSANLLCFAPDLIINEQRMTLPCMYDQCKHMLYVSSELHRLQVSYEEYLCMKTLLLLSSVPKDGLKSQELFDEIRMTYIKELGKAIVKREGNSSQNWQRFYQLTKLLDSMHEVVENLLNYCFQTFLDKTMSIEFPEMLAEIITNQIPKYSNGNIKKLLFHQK
pKi: −log10 of the molar value.
Experimental Endpoint: pKi

In [3]: df
Out[3]:
                               input_smiles  experimental_endpoint  meas_value
0  O=C(c1ccccn1)[C@]12Cc3cnn(-c4ccc(F)cc4)c3C=C1CCN(S(=O)(=O)c1ccc(C(F)(F)F)cc1)C2                    pKi        9.55

* * *

target: GR (Rattus norvegicus, UniProt P06536); construct: endogenous in cells; assay: Inhibition of dexamethasone effect on TAT activity, rat hepatoma cell line; settings: read-out: Kc, inhibition of dexamethasone effects on TAT activity
Sequence (P06536 whole entry): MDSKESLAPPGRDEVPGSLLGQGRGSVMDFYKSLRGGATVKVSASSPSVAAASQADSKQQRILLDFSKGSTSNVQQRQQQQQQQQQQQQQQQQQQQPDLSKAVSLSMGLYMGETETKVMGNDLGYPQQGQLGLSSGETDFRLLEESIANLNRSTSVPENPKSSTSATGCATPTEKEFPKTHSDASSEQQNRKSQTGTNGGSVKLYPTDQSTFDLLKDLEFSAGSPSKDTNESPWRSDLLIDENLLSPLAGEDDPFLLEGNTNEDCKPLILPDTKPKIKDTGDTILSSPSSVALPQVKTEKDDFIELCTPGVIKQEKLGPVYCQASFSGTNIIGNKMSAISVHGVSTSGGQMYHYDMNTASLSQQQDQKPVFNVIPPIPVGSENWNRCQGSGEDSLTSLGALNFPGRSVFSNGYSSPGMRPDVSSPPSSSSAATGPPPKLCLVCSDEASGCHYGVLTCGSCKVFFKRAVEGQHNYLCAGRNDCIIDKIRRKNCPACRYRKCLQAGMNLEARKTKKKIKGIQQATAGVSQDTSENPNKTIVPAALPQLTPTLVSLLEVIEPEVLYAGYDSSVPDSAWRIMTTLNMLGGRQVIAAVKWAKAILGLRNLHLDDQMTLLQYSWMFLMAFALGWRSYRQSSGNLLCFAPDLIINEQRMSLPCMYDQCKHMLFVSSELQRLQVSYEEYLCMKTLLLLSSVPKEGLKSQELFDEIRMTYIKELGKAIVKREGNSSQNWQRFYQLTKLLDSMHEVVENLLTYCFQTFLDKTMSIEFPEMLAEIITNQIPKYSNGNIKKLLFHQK
Experimental Endpoint: Ki

>>> df
                                   compound  experimental_endpoint  meas_value
0  O=C(c1ccccn1)[C@]12Cc3cnn(-c4ccc(F)cc4)c3C=C1CCN(S(=O)(=O)c1ccc(C(F)(F)F)cc1)C2 [dazucorilant]                     Ki      4.2 nM
